# Tested on: Saccharomyces cerevisiae
# protocol details: protein stability index of tFT-peptide fusion (C-terminal peptide) (PSI (0-1 scale)); higher = more stable (slower turnover)
# experimental parameters: genetic background: wild type; temperature: 30 C
endpoint label: protein stability index

PPPSPSTPKTTL	0.694
PHCPPPPSLSPP	0.791
HSFPSTLRRCFL	0.731
IWTSFKRRRWNF	0.532
CSFELSVCLMLR	0.188
WDGWPTRAGGTG	0.714
NVAKTTTRHNRP	0.718
VAPPSSFPPPRL	0.726
PINALLHNKRES	0.721
PPLLPPPVPPVP	0.727
FGQSKFAMKGVR	0.708
QAVTSVGTTNIV	0.689
ACLVAVWRWVFV	0.126
GFLGTLARAGRE	0.657
TCVTLRYRLTFE	0.508
ILPPCVNIGSGV	0.64
MKASRREDLCEP	0.62
EFANKGIKINTA	0.625
PPPQPPPSPPPP	0.67
REEGGWGEAWRE	0.726
GAGLSLALSGPL	0.607
PDSHPPAPPSPP	0.704

====

Catalogue of protein stability index readings, one per entry.
# System: Saccharomyces cerevisiae
# protocol details: protein stability index of tFT-peptide fusion in deletion strain of DAS1 (PSI (0-1 scale)); higher = more stable (slower turnover)
endpoint label: protein stability index

LVVYLSCVAVIN	0.0276
PSLAASFWRVYG	0.691
RLIQPLPVQWLN	0.641
CTRCGYKFRTNN	0.699
ARWRVGLNRGAS	0.668
FSMRWTFRYWTN	0.644
RLFQPLPVQFLN	0.658
FNMRWTFRYWVN	0.518
FSMRWTFCYWVN	0.365
LVVYPSCVACIN	0.337
ARWRVGLWRGASD	0.686
LVVYLSCVACIY	0.0359
PDKRDHLIKLLN	0.599
CTSCGYKFRTNND	0.7
RLIQPLPVQFIN	0.583
RLIQPLPVQFPN	0.605
VRGAVLGWRLVG	0.677
KKHKMGQKQKIN	0.623
ARWRVGLWRSAS	0.693
PDKRNHLTKLLN	0.584
KKHKKGQKQKIC	0.61
ARWQVGLWRGAS	0.656
AFWRVGLWRGAS	0.704
ARWRVGLWRGAC	0.681
PDKRNHLIKLGN	0.605
CLIQPLPVQFLN	0.548
ARWRVGLWRGASI	0.665
LVVYLSCVACIR	0.0325
CTSCMYKFRTNN	0.689
RLIQPLPVQMLN	0.606
PDKRNHTIKLLN	0.582
LKILRQKMNHQNM	0.592
KKHKKGQKWKIN	0.612
CTSCGYKFRTNNN	0.677
KKDKKGQKQKIN	0.601
PSLAASQWRVVG	0.668
VRGAVGGWRLKG	0.673
PDKRNHLIKLLF	0.576
LVVYLSTVACIN	0.161
ARWRVPLWRGAS	0.684
LKILRQKMCHQN	0.68
PDKRNHLIKLLNV	0.659
KKHKKFQKQKIN	0.599
FSMRWTFRCWVN	0.425
VQGAVGGWRLVG	0.708
NLIQPLPVQFLN	0.582
LKILRQKMNGQN	0.659
TKILRQKMNHQN	0.67
KKHKKGQKQKID	0.611
PSLAASAWRVVG	0.666
CTSCGYWFRTNN	0.668
KKKKKGQKQKIN	0.567
VRGAVGCWRLVG	0.69
RLTQPLPVQFLN	0.857
VWGAVGGWRLVG	0.692
LVILRQKMNHQN	0.675
PDKRNHLIKGLN	0.619
PDKRNHLIKLLNQ	0.667
PDKRNHSIKLLN	0.631
CTSCGYQFRTNN	0.692
PWLAASFWRVVG	0.717
